From: PubChem BioAssay (NCI)

system: UACC-62 melanoma; assay: NCI tumour cell line growth inhibition, 48 h

>  <compound>
COc1ccc2c(c1)C(=O)c1c-2n(CCCN=[N+]=[N-])c(=O)c2cc(N)ccc12

>  <TGI>
> 100 µM

$$$$
>  <compound>
O=C(c1ccc(Cl)c(Cl)c1)N(C(=O)N1CCN(c2ccccc2)CC1)S(=O)(=O)c1ccccc1

>  <TGI>
> 100 µM

$$$$
>  <compound>
COC(=O)/C=C/c1ccc2c(c1)[C@H](C(=O)OC)[C@@H](c1ccc(O)cc1)O2

>  <TGI>
> 100 µM

$$$$
>  <compound>
Cc1cc(Cl)ccc1N1C(=O)C(=O)C(c2nc3ccccc3o2)C(=O)C1=O

>  <TGI>
> 100 µM

$$$$
>  <compound>
COc1ccc2oc(=O)c(-c3csc(-c4ccccc4)n3)cc2c1

>  <TGI>
> 100 µM

$$$$
>  <compound>
COc1ccc(C(=O)C/C(=N/NC(N)=S)C(=O)Nc2ccccc2)cc1

>  <TGI>
> 100 µM

$$$$
>  <compound>
CCOC(=O)C(C)c1nc2cc(C(F)(F)F)ccc2[nH]c1=O (stereo not given)

>  <TGI>
> 100 µM

$$$$
>  <compound>
CCOC(=O)C(O)Cc1cnc2ccccc2n1 (stereo not given)

>  <TGI>
> 100 µM

$$$$
>  <compound>
c1ccc2c(-c3cnn4cc(-c5ccc(N6CCNCC6)cc5)cnc34)ccnc2c1

>  <TGI>
2.78 µM

$$$$
>  <compound>
C/C(=C1/N=C(c2ccccc2)OC1=O)c1ccccc1

>  <TGI>
> 100 µM

$$$$
>  <compound>
Oc1ccc2ccccc2c1NCn1nc(CCCCCCCCc2nn(CNc3c(O)ccc4ccccc34)c(=S)o2)oc1=S

>  <TGI>
> 100 µM

$$$$
>  <compound>
C/C=C/C=C/CCCCCCCCCCCCC[C@]1(OC)C=CC(CC(=O)OC)OO1 (stereo not given in full)

>  <TGI>
29.8 µM

$$$$
>  <compound>
CCOc1ccc2c(c1)C(=O)c1c-2n(CCCN)c(=O)c2cc([N+](=O)[O-])ccc12

>  <TGI>
1.82 µM

$$$$
>  <compound>
CC(=O)OCC1OC(n2c(=S)n(-c3ccccc3)c(=O)c3cc(Br)ccc32)C(OC(C)=O)C(OC(C)=O)C1OC(C)=O (stereo not given)

>  <TGI>
> 100 µM

$$$$
>  <compound>
Cc1ccc(N(/C=C/C(=O)C(F)(F)F)CC(=O)c2ccc(Cl)c(Cl)c2)cc1

>  <TGI>
19 µM

$$$$

----------
tested on: OVCAR-4 ovarian; assay: NCI tumour cell line growth inhibition, 48 h
observationType: TGI

>  <molecule>
Cc1ccc(/C=C2\CCCCCC2=O)cc1

>  <studyTarget>
OVCAR-4 ovarian

>  <reading>
> 100 µM

$$$$
>  <molecule>
Nc1cc(N)cc(Cc2ccccc2)c1

>  <studyTarget>
OVCAR-4 ovarian

>  <reading>
> 100 µM

$$$$
>  <molecule>
CCOC(=O)C1=C(c2ccccc2)NC(c2ccccc2)=C(C(=O)OCC)c2c1c(=O)cc[nH]c2=O

>  <studyTarget>
OVCAR-4 ovarian

>  <reading>
> 100 µM

$$$$
>  <molecule>
Oc1ccccc1-c1n[nH]c(-c2ccccc2O)n1

>  <studyTarget>
OVCAR-4 ovarian

>  <reading>
> 100 µM

$$$$
>  <molecule>
CCP(C)(C)=O

>  <studyTarget>
OVCAR-4 ovarian

>  <reading>
> 100 µM

$$$$
>  <molecule>
O=C(Nc1ccccc1[N+](=O)[O-])C(=O)C(C(=O)c1ccccc1-c1ccccc1)C1OC(=O)c2ccccc21 (stereo not given)

>  <studyTarget>
OVCAR-4 ovarian

>  <reading>
> 100 µM

$$$$
>  <molecule>
C[n+]1cc2cc3c(cc2c2ccccc21)OCO3

>  <studyTarget>
OVCAR-4 ovarian

>  <reading>
36 µM

$$$$
>  <molecule>
COc1ccc2c(c1)C1c3ccccc3CCN1CCC2 (stereo not given)

>  <studyTarget>
OVCAR-4 ovarian

>  <reading>
> 100 µM

$$$$
>  <molecule>
O=C([CH-]C(=O)c1ccccc1)c1ccccc1.[CH3-].[CH3-].[CH3-].[Sn+4]

>  <studyTarget>
OVCAR-4 ovarian

>  <reading>
56.1 µM

$$$$
>  <molecule>
COc1ccc(C(c2cc(OC)c(OC)c(OC)c2)N2C(=O)CCC2C(=O)O)cc1 (stereo not given)

>  <studyTarget>
OVCAR-4 ovarian

>  <reading>
> 100 µM

$$$$
>  <molecule>
Cc1cccc(C)c1NC(=O)CCCC(=O)C(C#N)c1ccc(Cl)cc1 (stereo not given)

>  <studyTarget>
OVCAR-4 ovarian

>  <reading>
> 100 µM

$$$$
>  <molecule>
C=C1C(=O)O[C@H]2[C@H]1CC/C(COC(=O)C(=O)c1c[nH]c3ccc(Cl)cc13)=C\CC[C@@]1(C)O[C@@H]21

>  <studyTarget>
OVCAR-4 ovarian

>  <reading>
7.03 µM

$$$$
>  <molecule>
Cc1ccc(S(=O)(=O)N[C@@H](Cc2ccccc2)C(=O)CCl)cc1

>  <studyTarget>
OVCAR-4 ovarian

>  <reading>
42.6 µM

$$$$
>  <molecule>
N/N=C(/CC(O)(C(F)(F)F)C(F)(F)F)c1ccccc1

>  <studyTarget>
OVCAR-4 ovarian

>  <reading>
> 10 µM

$$$$
>  <molecule>
OCC#CCCCCOCC#Cc1ccccc1C#CCOCCCCC#CCO

>  <studyTarget>
OVCAR-4 ovarian

>  <reading>
53.9 µM

$$$$
>  <molecule>
CC1=C/C(O)CC(=O)Cc2nc(co2)C(=O)N2CCC=C2C(=O)OC(C(C)C)C(C)/C=C\C(=O)NC/C=C\1 (stereo not given)

>  <studyTarget>
OVCAR-4 ovarian

>  <reading>
> 100 µM

$$$$
>  <molecule>
COc1ccc(C2CC(c3cccc(OC)c3)=NN2C(=O)c2cc(OC)c(OC)c(OC)c2)cc1 (stereo not given)

>  <studyTarget>
OVCAR-4 ovarian

>  <reading>
> 100 µM

$$$$
>  <molecule>
CC1=NN(C(=O)CC(=O)Nc2ccc(Cl)cc2)C(=O)C1N=Nc1ccc(S(=O)(=O)c2ccc(N=NC3C(=O)N(C(=O)CC(=O)Nc4ccc(Cl)cc4)N=C3C)cc2)cc1 (stereo not given)

>  <studyTarget>
OVCAR-4 ovarian

>  <reading>
> 100 µM

$$$$
>  <molecule>
CCOc1ccc(N=Nc2ccc(-c3ccc(N=Nc4c(O)ccc5cc(S(=O)(=O)O)cc(S(=O)(=O)O)c45)cc3)cc2)cc1

>  <studyTarget>
OVCAR-4 ovarian

>  <reading>
> 100 µM

$$$$
>  <molecule>
Nc1ccc(S(=O)(=O)NCCS(=O)(=O)O)cc1

>  <studyTarget>
OVCAR-4 ovarian

>  <reading>
> 100 µM

$$$$
